Listing: Turnover Numbers, CYP2C13 of selected molecules
TARGET_SYSTEM: Rat CYP2C13 (Rattus norvegicus, UniProt P20814)
Sequence (P20814 1-490): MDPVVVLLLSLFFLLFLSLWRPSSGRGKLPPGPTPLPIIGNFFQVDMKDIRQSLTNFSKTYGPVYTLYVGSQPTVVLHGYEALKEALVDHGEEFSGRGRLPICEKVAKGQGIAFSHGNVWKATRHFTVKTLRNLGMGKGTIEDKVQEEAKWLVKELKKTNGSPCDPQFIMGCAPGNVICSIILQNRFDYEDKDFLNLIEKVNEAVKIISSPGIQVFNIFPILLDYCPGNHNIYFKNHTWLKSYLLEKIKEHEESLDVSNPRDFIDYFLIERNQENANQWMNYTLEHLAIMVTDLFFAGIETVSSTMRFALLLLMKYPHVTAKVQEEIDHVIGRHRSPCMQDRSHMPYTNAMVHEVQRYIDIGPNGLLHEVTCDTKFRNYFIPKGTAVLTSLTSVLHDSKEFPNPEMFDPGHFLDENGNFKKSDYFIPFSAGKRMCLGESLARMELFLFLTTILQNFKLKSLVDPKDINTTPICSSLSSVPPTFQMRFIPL
ASSAY_REMARKS: Turnover of fluorometric substrates by rat CYP2C13
RUN_PARAMETERS: substrate uM: Ia 2, AMMC 20, CEC 40, MFC 50, BFC 50, BQ 40, BzRes 50; 30 min; enzyme 50 nM

Known Turnover Numbers, CYP2C13 results, listed for orientation:
1. COc1ccc2c(C(F)(F)F)cc(=O)oc2c1	0.21 pmol product/min/pmol enzyme
2. O=C(OCc1ccccc1)c1ccccc1-c1c2ccc(=O)cc-2oc2cc(OCc3ccccc3)ccc12	0.003 pmol product/min/pmol enzyme
3. O=c1cc(C(F)(F)F)c2ccc(OCc3ccccc3)cc2o1	0.74 pmol product/min/pmol enzyme

# next molecule below
In: Any idea what its Turnover Numbers, CYP2C13 is? The molecule is O=c1ccc2nc3ccc(OCc4ccccc4)cc3oc-2c1
Out: 0.01 pmol product/min/pmol enzyme

* * *

TARGET_SYSTEM: Rat CYP2B1 (Rattus norvegicus, UniProt P00176)
Sequence (P00176 1-491): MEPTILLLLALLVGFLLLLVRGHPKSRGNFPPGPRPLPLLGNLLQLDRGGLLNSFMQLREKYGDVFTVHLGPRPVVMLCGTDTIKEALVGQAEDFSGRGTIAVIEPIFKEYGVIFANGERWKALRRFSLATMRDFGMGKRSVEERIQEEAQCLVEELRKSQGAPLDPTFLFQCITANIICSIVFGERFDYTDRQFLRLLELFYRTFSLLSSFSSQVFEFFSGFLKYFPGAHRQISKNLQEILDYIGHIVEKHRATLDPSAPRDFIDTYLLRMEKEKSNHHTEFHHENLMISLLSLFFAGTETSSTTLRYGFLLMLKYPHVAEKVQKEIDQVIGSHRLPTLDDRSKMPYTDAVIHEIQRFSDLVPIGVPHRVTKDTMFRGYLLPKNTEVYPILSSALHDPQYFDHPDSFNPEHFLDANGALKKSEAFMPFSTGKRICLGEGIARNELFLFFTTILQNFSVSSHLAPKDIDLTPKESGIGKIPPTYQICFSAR
ASSAY_REMARKS: Turnover of fluorometric substrates by rat CYP2B1
RUN_PARAMETERS: substrate uM: Ia 2, AMMC 20, CEC 40, MFC 50, BFC 50, BQ 40, BzRes 50; 30 min; enzyme 50 nM
REPORTED_METRIC: Turnover Numbers, CYP2B1

Known Turnover Numbers, CYP2B1 results, listed for orientation:
1. O=c1cc(C(F)(F)F)c2ccc(OCc3ccccc3)cc2o1	3.70 pmol product/min/pmol enzyme
2. c1ccc(COc2ccc3cccnc3c2)cc1	2.5 pmol product/min/pmol enzyme
3. O=c1ccc2nc3ccc(OCc4ccccc4)cc3oc-2c1	0.82 pmol product/min/pmol enzyme

In: Reported Turnover Numbers, CYP2B1 for Rat CYP2B1 (Rattus norvegicus, UniProt P00176), given CCOc1ccc2cc(C#N)c(=O)oc2c1 ?
Out: 0.45 pmol product/min/pmol enzyme

In: Reported Turnover Numbers, CYP2B1 for Rat CYP2B1 (Rattus norvegicus, UniProt P00176), given COc1ccc2c(C(F)(F)F)cc(=O)oc2c1 ?
Out: 2.82 pmol product/min/pmol enzyme

This collection of values is drawn from patent US6420131B1.
